target: PAK7 (human) (UniProt Q9P286); experiment: radiometric filter-binding kinase assay; conditions: compound 10.0 µM
Sequence (Q9P286 whole entry, looked up): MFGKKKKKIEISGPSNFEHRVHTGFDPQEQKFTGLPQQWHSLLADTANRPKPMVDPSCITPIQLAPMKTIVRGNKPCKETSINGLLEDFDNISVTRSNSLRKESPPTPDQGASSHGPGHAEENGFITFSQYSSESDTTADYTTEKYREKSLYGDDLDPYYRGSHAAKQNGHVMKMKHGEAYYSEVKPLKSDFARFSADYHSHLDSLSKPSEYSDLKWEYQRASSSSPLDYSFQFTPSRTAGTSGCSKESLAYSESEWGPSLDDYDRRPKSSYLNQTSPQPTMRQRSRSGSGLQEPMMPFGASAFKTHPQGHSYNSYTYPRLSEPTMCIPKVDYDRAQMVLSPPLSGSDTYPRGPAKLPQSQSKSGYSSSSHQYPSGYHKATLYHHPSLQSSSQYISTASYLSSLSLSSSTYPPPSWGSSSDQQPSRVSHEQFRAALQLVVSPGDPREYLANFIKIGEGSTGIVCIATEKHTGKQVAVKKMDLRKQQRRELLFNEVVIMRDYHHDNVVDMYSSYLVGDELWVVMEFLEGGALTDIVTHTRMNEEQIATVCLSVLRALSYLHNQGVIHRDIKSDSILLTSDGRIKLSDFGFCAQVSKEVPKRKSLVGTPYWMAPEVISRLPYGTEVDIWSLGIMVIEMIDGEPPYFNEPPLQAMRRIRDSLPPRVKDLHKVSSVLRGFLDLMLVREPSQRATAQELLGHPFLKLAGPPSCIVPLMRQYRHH

# molecule, unit-descriptor, residual activity
rows = [
    ("O=C(NOC[C@H](O)CO)c1ccc(F)c(F)c1Nc1ccc(I)cc1Cl", "%", 85),
    ("Oc1ccc(/C=C/c2cc(O)cc(O)c2)cc1", "%", 83),
    ("NCC(=O)Nc1ccc(-n2nc(C(F)(F)F)cc2-c2ccc3c(ccc4ccccc43)c2)cc1", "%", 107),
    ("CCCCCc1ccc(/C=C/[C@H](O)[C@@H](CO)NC)cc1", "%", 101),
    ("NS(=O)(=O)OC[C@@H]1C[C@@H](n2ccc3c(N[C@H]4CCc5ccccc54)ncnc32)C[C@@H]1O", "%", 89),
    ("CCOC(=O)c1ccc(N2NC(=O)/C(=C/c3ccc([N+](=O)[O-])o3)C2=O)cc1", "%", 118),
    ("Cc1ccc(=O)n(-c2ccccc2)c1", "%", 96),
    ("C=CC(=O)N1CCC[C@@H](n2nc(-c3ccc(Oc4ccccc4)cc3)c3c(N)ncnc32)C1", "%", 50),
    ("NC(=O)c1cc2c(-c3cccc(-c4ccccc4)c3)cnc(N)c2s1", "%", 16),
    ("O=C(O)c1ccc(-c2c[nH]c3ncc(-c4ccccc4)cc23)cc1C1CCCC1", "%", 38),
    ("CC1=C(CO)C(=O)O[C@@H]([C@@H](C)[C@H]2CC[C@H]3[C@@H]4C[C@H]5O[C@]56[C@@H](O)C=CC(=O)[C@]6(C)C4CC[C@]23C)C1 (stereo partly drawn)", "%", 111),
    ("CC(C)C[C@H](NC(=O)CNC(=O)c1cc(Cl)ccc1Cl)B1OC(=O)CC(CC(=O)O)(C(=O)O)O1 (stereo partly drawn)", "%", 94),
    ("Oc1ccc2ccccc2c1SSc1c(O)ccc2ccccc12", "%", 121),
    ("Cc1ccc(-c2ccc3c(ccc4sc5c(c43)NC[C@@H](C)NC5=O)n2)cn1", "%", 101),
    ("COc1cc(C(=O)N2CCOCC2)c(F)cc1Nc1ncc(C(F)(F)F)c(NC2CC2)n1", "%", 79),
    ("O=C(N[C@@H](COc1ccc2[nH]c(=O)[nH]c2c1)c1ccccc1)c1cccn(Cc2ccc(F)c(F)c2)c1=O", "%", 64),
    ("Cc1ccc2c(c1)C(=O)[C@@]1(O)CCN(c3ccccc3)C1=N2", "%", 73),
    ("N#Cc1c(C2CCNCC2)cc(-c2c(O)cccc2OCC2CC2)nc1N", "%", 75),
    ("O=C1NC(=S)N[C@@H]1Cc1c[nH]c2ccccc12", "%", 108),
    ("Cn1nc(Nc2ccc(F)cc2)c2c(N)ncnc21", "%", 125),
    ("COc1cc2ncn(-c3cc(OCc4ccccc4S(C)(=O)=O)c(C#N)s3)c2cc1OC", "%", 58),
    ("O=C(Nc1ccccc1-c1cn2c(CN3CCNCC3)csc2n1)c1cnc2ccccc2n1", "%", 72),
    ("CCn1c(-c2nonc2N)nc2cncc(CNC3CCNCC3)c21", "%", 98),
    ("CN1C(=O)[C@@H](Cc2c[nH]c3ccccc23)NC1=S", "%", 99),
    ("NC(=O)c1cc(-c2ccnc(NC3CCCCC3)c2)nc(N2CCNCC2)c1", "%", 71),
    ("FC(F)(F)c1ccc(-c2ccc(Oc3cncc4sc(-c5nn[nH]n5)cc34)cc2)cc1", "%", 94),
    ("NC1(c2ccc(-c3nc4ccn5c(=O)[nH]nc5c4cc3-c3ccccc3)cc2)CCC1", "%", 75),
    ("O=S(=O)(c1ccc(F)c2nonc12)N1CCN(c2ncc(C(F)(F)F)cc2Cl)CC1", "%", 92),
]
